# target_system: T1, Nrd1 307-491 T340A (Saccharomyces cerevisiae, UniProt P53617 307-491, T340A)
# T1 sequence: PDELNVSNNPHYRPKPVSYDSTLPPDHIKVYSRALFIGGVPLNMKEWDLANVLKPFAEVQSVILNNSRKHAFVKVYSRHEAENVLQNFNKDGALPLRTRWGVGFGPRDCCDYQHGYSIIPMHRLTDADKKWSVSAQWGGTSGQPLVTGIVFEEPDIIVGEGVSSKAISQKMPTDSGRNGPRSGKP
# experiment: fluorescence anisotropy; FA: 10 nM RNA, 50 mM sodium phosphate pH 8, 150 mM NaCl, 10 mM beta-mercaptoethanol, 20 C (protein stock in 300 mM NaCl); NMR: same buffer with 300 mM NaCl, 20
# test_settings: protein: recombinant; tags: C-terminal His6; label: 5' fluorescein or TAMRA (FA); unlabeled (NMR)
experimental_endpoint: pKd
Answers are plain numbers, as −log10 of the molar value.

For the binder GUAA (ssRNA) , what pKd is on record?
3.82
